tgt: recombinant human HGF (hepatocyte growth factor) (human, UniProt P14210 32-728)
Sequence (P14210 32-728 limits assumed): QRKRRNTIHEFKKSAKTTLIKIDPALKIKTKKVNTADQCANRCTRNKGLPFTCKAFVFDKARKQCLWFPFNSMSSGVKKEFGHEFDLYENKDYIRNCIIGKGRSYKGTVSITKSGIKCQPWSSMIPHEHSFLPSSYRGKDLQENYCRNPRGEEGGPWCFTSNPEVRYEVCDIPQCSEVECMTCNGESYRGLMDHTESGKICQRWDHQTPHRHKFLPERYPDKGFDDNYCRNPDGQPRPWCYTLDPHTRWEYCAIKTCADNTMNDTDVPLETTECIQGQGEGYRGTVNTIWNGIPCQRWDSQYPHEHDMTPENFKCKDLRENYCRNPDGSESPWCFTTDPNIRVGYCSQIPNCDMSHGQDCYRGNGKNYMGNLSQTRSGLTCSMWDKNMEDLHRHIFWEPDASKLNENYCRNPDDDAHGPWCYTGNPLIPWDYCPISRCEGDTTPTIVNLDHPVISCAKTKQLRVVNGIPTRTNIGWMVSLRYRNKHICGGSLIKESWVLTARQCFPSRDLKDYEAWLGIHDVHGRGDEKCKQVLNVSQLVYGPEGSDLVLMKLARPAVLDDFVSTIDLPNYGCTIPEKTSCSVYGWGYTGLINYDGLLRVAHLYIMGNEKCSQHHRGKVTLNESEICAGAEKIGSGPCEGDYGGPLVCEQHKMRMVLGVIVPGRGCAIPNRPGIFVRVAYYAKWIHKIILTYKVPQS
method-description: cell-based or functional assay
result-type: % inhibition of HGF stimulated c-Met phosphorylation in A549 cells (%)

# binder, val
rows = [
    ("DARPin #56 (designed binder) MRGSHHHHHHGSDLGKKLLEAARAGQDDEVRILMANGADVNANDFLGLTPLHLAASTGHLEIVEVLLKYGADVNAIDAYGHTPLHLAANNGHLEIVEVLLKYGADVNAIDHFGYTPLHLAAMFGHLEIVEVLLKNGADVNAQDKFGKTAFDISIDNGNEDLAEILQKLN", 72),
    ("DARPin #59 (designed binder) MRGSHHHHHHGSDLGKKLLEAARAGQDDEVRILMANGADVNADDSLGLTPLHLAAASGHLEIVEVLLKNGADVNAVDQNSFTPLYLAANNGHLEIVEVLLKNGADVNAFDWHGTTPLHLAAMFGHLEIVEVLLKNGADVNAQDKFGKTAFDISIDNGNEDLAEILQKLN", 100),
    ("DARPin #33 (designed binder) MRGSHHHHHHGSDLGKKLLEAARAGQDDEVRILMANGADVNAHDYSGFTPLHLAAYYGHLEIVEVLLKHGADVNAFDDWGHTPLHLAARYGHLEIVEVLLKYGADVNAEDTEGYTPLHLAAMDGHLEIVEVLLKNGADVNAQDKFGKTAFDISIDNGNEDLAEILQKLN", 100),
]
